Here, molecules appear alongside pKi reported for Alpha-2A adrenergic receptor (Rattus norvegicus, UniProt P22909) in the literature.
assayTarget: Alpha-2A adrenergic receptor (Rattus norvegicus, UniProt P22909)
Sequence (P22909 whole entry): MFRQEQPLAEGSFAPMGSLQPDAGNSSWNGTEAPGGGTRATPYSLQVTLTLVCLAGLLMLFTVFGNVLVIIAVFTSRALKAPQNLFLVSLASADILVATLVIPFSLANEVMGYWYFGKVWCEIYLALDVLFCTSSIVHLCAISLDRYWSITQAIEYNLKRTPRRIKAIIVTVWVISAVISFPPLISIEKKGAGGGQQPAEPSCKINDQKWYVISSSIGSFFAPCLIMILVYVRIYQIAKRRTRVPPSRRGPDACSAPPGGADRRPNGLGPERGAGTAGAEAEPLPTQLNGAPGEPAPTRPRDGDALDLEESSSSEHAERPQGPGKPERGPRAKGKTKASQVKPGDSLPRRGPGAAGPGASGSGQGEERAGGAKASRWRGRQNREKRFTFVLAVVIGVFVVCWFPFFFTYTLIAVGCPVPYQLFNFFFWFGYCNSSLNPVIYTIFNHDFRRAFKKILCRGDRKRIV
pKi: −log10 of the molar value.

{"columns": ["molecule", "assayTarget", "inequalitySymbol", "pKi"],
 "data": [
  ["COCCCNS(=O)(=O)c1ccc2c(c1)CN[C@@H](CF)C2", "Alpha-2A adrenergic receptor (Rattus norvegicus, UniProt P22909)", "=", 3.17],
  ["O=S(=O)(NCCC(F)(F)F)c1ccc2c(c1)CNC(CF)C2 (stereo unspecified)", "Alpha-2A adrenergic receptor (Rattus norvegicus, UniProt P22909)", "=", 3.18],
  ["Cc1nccn1CC1CCc2c(c3ccccc3n2C)C1=O (stereo unspecified)", "Alpha-2A adrenergic receptor (Rattus norvegicus, UniProt P22909)", "<", 5.00],
  ["CCCNS(=O)(=O)c1ccc2c(c1)CNC(CF)C2 (racemic)", "Alpha-2A adrenergic receptor (Rattus norvegicus, UniProt P22909)", "=", 3.21],
  ["O=S(=O)(NCCC(F)(F)F)c1ccc2c(c1)CN[C@@H](CF)C2", "Alpha-2A adrenergic receptor (Rattus norvegicus, UniProt P22909)", "=", 3.17],
  ["Cc1noc2c(-c3ccccc3)nn(CCCN3CCN(c4cccc(Cl)c4)CC3)c(=O)c12", "Alpha-2A adrenergic receptor (Rattus norvegicus, UniProt P22909)", "<", 6.00],
  ["Cc1cccc2nc(N3CCN(Cc4cnc[nH]4)CC3)c3cccn3c12", "Alpha-2A adrenergic receptor (Rattus norvegicus, UniProt P22909)", "<", 5.00],
  ["NS(=O)(=O)c1ccc2c(c1)CN[C@@H](CF)C2", "Alpha-2A adrenergic receptor (Rattus norvegicus, UniProt P22909)", "=", 3.15],
  ["CCNS(=O)(=O)c1ccc2c(c1)CNC(CF)C2 (racemic)", "Alpha-2A adrenergic receptor (Rattus norvegicus, UniProt P22909)", "=", 3.26],
  ["N[C@H](CN1CCN(c2nc3cc(F)ccc3n3cccc23)CC1)C(=O)O", "Alpha-2A adrenergic receptor (Rattus norvegicus, UniProt P22909)", "<", 5.00],
  ["Fc1ccc2c(c1)nc(N1CCN(Cc3cnc[nH]3)CC1)c1cccn12", "Alpha-2A adrenergic receptor (Rattus norvegicus, UniProt P22909)", "<", 5.00]
]}
